Below, each entry is listed with its recorded melting point.

Examples with their reported melting point follow.
N#CCCNC(=O)c1n[nH]cc1NC(=O)c1cccs1; 226 to 227 °C
CN(C)C=Cc1cc(Cl)c(Cl)cc1[N+](=O)[O-]; 171 to 174 °C
OCc1cn(-c2ccc(Cl)cc2)cn1; 115 to 116 °C
Cc1c(N2C[C@@H](N)C(C)(C)C2)c(F)c(N)c2c(=O)c(C(=O)O)cn(C3CC3)c12; 192 to 193 °C
COc1cc(COc2nn(-c3ccccc3)cc2/C=C/c2ccccn2)ccc1OCc1nc(-c2ccco2)oc1C; 135 to 136 °C

Returns the measured melting point for the input compound. Input: `CNc1cc(O)c(OCCO)cc1[N+](=O)[O-]`
210 °C

Another: `Cc1cc(O)c2c(c1)CCC2`
82 to 83 °C

Another: `CCCn1nc2c(N)nc3c(c2c1CC(C)(C)S(C)(=O)=O)CCCC3`
209 to 211 °C

Another: CC12CCC3c4cc(C=O)c(OCc5ccccc5)cc4CCC3C1CCC2OCc1ccccc1 (stereo not given)
145 to 147 °C

Another: `c1cc(-n2ccnc2)cc(-n2cnc3cc(-c4ccon4)ccc32)c1`
230 to 234 °C

###

reported-metric: melting point (°C)

CCc1ccc(-c2oc3cccc4c3c2C=CC4=O)cc1; 186

[P] CCOC(=O)c1nn(-c2ccc(Br)cc2)c2c1CCCC2
[Q] COc1ccc(C(F)(F)F)cc1NC(=O)CCl
Higher melting point between P and Q ? // respond with label for picked entry
P
(P: 147 °C, Q: 94.7 °C)

###

Below, each entry is listed with its recorded melting point.

CC(C)c1nc(COC(N)=O)n(Cc2cnc3ccccc3c2)c1Sc1cc(Cl)cc(Cl)c1; 214 to 216 °C

Returns the measured melting point for the input molecule. Input: N[C@H]1CCCC[C@H]1Nc1cc2c(cc1F)c(=O)c(C(=O)O)cn2C1CC1 (relative stereo)
270 to 274 °C

Another: `CCOC(=O)N1CCN(c2ccc(C(=O)CCc3ccc(NC4=NCCN4)cc3)cc2)CC1`
150 to 151 °C

Another: `O=C1C=CC(O)(c2cc3cc(F)ccc3n2S(=O)(=O)c2ccccc2)C=C1`
166 to 167 °C

###

reported-metric: melting point

Examples with their reported melting point follow.
Nc1sc2c(c1C(=O)c1ccc(Cl)cc1)CCNC2; 164 to 166 °C
CC(=O)OCCCN1CCC(CNC(=O)[C@@H]2CCCN2S(=O)(=O)c2ccc(Cl)c(COc3cccc4c(-n5cccn5)cc(C)nc34)c2Cl)CC1; 89 °C
CCC(=O)Nc1ccc2nc(C(=O)NCc3cccc(OC)c3)[nH]c(=O)c2c1; 222 to 223 °C

Returns the measured melting point for the input molecule. Input: `COC(COc1ccc(Br)c(C)c1C)OC`
40 to 41 °C

Another: CCCCCC(O)CCCOC(=O)c1ccccc1 (centres undefined)
90 to 93 °C

Another: CC(=O)O[C@H]1[C@H](NC(=N)Nc2ccccc2)c2cc(C#N)ccc2OC1(C)C (relative stereo)
239 to 240 °C

Another: `CC(C)(C)[Si](Oc1ccc2[nH]c(=O)oc(=O)c2c1)(c1ccccc1)c1ccccc1`
185 °C

Another: `C=CCn1c(=O)n(CC=C)c(=O)n(-c2cc(N3C(=O)C4=C(CCCC4)C3=O)c(F)cc2Cl)c1=O`
80 to 85 °C

Another: COc1cccc2c1C13CCN(C)C(C2)C1CCC(=O)C3 (single isomer, unassigned; (-))
145 to 147 °C
